Molecular target: T1, human LTBP3-proTGFβ1 complex (human, UniProt Q9NS15 44-1303; P01137 30-390, limits assumed)
T1 construct: Exemplary entries; also called Hu LTBP3-proTGFβ1; huLTBP3 proTGFb1
T1 sequence (Q9NS15 44-1303 limits assumed, chain 1 of 2): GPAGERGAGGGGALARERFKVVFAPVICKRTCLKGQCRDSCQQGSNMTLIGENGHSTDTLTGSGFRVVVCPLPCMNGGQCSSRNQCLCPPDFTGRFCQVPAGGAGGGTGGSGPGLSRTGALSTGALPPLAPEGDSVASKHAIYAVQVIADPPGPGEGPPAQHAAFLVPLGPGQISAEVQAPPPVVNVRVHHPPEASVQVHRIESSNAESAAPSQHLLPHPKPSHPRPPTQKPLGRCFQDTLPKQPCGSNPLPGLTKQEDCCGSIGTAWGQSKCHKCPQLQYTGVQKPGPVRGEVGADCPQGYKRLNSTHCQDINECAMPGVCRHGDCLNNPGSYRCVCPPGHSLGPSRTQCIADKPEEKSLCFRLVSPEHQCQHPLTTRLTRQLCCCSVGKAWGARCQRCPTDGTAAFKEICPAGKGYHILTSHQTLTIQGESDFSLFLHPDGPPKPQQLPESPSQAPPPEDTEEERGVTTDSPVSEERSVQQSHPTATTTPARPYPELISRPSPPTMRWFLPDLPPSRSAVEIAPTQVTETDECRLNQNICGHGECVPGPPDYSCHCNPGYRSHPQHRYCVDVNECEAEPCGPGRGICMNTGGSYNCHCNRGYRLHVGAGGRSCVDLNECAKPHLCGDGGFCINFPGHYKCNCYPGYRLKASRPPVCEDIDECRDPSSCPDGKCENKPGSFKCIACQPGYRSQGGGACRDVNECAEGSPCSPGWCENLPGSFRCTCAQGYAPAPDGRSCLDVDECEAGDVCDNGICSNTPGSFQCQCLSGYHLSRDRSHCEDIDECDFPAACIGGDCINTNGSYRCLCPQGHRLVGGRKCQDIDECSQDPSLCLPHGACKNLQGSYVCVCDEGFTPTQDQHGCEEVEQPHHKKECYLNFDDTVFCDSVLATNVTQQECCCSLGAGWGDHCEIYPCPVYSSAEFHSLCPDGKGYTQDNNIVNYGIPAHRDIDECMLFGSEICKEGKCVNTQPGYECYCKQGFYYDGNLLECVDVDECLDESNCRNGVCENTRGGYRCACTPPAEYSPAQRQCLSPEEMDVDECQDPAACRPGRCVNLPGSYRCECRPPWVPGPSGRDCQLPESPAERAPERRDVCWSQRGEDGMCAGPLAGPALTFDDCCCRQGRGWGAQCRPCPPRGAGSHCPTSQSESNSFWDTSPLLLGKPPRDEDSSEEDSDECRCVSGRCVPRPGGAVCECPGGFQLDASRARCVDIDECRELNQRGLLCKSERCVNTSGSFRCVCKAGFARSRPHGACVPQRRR
T1 sequence (P01137 30-390 limits assumed, chain 2 of 2): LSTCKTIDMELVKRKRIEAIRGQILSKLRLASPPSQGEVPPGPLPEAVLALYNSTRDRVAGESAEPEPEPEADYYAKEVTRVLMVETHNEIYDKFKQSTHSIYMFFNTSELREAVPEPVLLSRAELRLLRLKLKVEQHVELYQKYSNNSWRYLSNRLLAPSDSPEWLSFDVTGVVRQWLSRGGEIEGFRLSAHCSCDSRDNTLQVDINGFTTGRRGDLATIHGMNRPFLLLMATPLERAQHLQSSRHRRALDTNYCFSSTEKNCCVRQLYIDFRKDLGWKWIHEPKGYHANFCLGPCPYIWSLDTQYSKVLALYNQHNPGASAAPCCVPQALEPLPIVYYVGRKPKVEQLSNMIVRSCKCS
Assay: Octet BLI, IgG captured
What pKd was measured for each of the following?
Kindly note that pKd refers to -log10 of the concentration in mol/L and answer with the value alone.

Memo: SR-AB43 (antibody, IgG1, V domains shown, Cycle 3, lineage SR-AB23) VH: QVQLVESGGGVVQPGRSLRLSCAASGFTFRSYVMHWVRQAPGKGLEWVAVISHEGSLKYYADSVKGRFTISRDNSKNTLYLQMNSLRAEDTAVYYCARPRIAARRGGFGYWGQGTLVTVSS VL: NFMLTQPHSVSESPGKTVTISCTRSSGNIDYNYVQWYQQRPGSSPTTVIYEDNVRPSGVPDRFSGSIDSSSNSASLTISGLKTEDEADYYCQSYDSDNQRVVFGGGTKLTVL , reported pKd: 9.75

Memo: SR-AB42 (antibody, IgG1, V domains shown, Cycle 3, lineage SR-AB23) VH: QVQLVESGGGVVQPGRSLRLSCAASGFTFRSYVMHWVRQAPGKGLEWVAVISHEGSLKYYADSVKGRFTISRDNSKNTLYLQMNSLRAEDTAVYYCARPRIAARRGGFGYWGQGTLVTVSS VL: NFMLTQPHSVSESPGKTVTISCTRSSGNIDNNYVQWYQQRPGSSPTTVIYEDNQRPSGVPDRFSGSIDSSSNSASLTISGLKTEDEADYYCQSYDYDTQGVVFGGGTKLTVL , reported pKd: 9.59

Memo: SR-AB39 (antibody, IgG1, V domains shown, Cycle 3, lineage SR-AB22) VH: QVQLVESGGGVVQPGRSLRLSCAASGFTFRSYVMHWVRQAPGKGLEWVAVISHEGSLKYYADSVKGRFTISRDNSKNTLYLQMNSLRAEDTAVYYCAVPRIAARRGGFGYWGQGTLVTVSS VL: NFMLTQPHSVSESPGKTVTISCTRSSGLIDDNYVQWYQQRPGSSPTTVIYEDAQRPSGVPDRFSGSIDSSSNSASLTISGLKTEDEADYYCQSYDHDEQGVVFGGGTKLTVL , reported pKd: 9.87

Memo: SR-AB37 (antibody, IgG1, V domains shown, Cycle 3, lineage SR-AB22) VH: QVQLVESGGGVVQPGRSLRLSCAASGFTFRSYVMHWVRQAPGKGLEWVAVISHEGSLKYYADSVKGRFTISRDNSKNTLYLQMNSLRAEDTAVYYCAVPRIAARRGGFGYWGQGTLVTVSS VL: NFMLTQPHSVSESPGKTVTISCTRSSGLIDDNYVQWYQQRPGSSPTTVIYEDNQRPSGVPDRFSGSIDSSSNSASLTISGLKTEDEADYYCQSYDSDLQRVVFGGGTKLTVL , reported pKd: 9.86

Memo: SR-AB45 (antibody, IgG1, V domains shown, Cycle 3, lineage SR-AB23) VH: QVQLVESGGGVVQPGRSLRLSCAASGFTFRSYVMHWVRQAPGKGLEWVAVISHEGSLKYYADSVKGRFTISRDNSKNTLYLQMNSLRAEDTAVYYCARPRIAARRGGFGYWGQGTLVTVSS VL: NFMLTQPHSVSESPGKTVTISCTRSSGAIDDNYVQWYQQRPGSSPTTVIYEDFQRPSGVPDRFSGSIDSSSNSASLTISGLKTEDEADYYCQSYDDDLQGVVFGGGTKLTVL , reported pKd: 9.91

Memo: SR-AB64 (antibody, IgG1, V domains shown, Cycle 3, lineage SR-AB26) VH: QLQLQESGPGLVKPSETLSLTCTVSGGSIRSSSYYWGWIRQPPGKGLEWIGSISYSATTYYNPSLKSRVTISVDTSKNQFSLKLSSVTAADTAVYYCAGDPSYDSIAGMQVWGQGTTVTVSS VL: DIQMTQSPSSLSASVGDRVTITCRASQSISYYLNWYQQKPGKAPKLLIYSASSRQSGVPSRFSGSGSGTDFTLTISSLQPEDFATYYCQQGFDFPLTFGGGTKVEIK , reported pKd: 9.33

The reported numbers originate from patent US20220064276A1.
